Provide the reported fold activation, T-cell proliferation, 22 nM, non-anchored, donor 4 of each item.
# experimental system: T1, human GITR (amino acids M1-V241, NCBI Accession #NP_004186.1) expressed on cells (human, UniProt Q9Y5U5 26-241)
# T1 sequence: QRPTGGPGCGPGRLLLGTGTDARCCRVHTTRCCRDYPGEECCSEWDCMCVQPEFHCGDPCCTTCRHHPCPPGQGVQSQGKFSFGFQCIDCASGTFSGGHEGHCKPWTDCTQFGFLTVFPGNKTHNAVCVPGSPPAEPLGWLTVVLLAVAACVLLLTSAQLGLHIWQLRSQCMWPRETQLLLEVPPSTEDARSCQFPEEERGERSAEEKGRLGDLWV
# assay info: cell-based or functional assay
The figure you give is taken to be in fold; do not add the unit.

Q: Return reported fold activation, T-cell proliferation, 22 nM, non-anchored, donor 4; argument: H4H14476P (antibody, human IgG4, V domains shown, human IgG4 (H4H)) VH: QVQLVESGGGVVQPGRSLRLSCAASGFTFSNYGIHWVRQPPGQGLEWVAVIWYAGSNKFYADSVKGRFTISRDNSKNSAYLQMNSLRAEDTAVYYCARAPLGYYYYGMDVWGQGTTVTVSS VL: DIQMTQSPSSLSASVGDRVTITCRASQGIRNDLGWYQQKPGKAPKRLIYDASSLESGVPSRFSGSGSGTEFTLTISSLQPEDFATYYCLQHNSYPWTFGQGTKVEIK
A: 0.8

Q: Return reported fold activation, T-cell proliferation, 22 nM, non-anchored, donor 4; argument: H4H14516P (antibody, human IgG4, V domains shown, human IgG4 (H4H)) VH: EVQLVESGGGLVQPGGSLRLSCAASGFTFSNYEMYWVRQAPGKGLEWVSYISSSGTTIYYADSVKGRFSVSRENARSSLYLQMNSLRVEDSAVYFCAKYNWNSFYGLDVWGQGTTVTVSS VL: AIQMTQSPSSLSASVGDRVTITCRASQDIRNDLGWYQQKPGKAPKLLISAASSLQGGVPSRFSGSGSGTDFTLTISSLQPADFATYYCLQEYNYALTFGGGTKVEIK
A: 0.9

Q: Return reported fold activation, T-cell proliferation, 22 nM, non-anchored, donor 4; argument: H4H14521P (antibody, human IgG4, V domains shown, human IgG4 (H4H)) VH: EVQLVESGGGLVQPGGSLRLSCAASGFTFRVYEMNWVRQAPGKGLEWISYIGSSGFTIYYADSVKGRFTISRDNAKNSLFLQLNSLRAEDTAVYYCARGWNDGVPNYLGMDVWGQGTTVTVSS VL: DIQMTQSPSSLSASVGDRVTITCQASQDINKYLNWYQQKPGKAPKLLIYDASNLETGVPSRFSGSGSGTDFTFTISSLQPEDIARYHCQQYDKIPLTFGGGTKVEIK
A: 1

Q: Return reported fold activation, T-cell proliferation, 22 nM, non-anchored, donor 4; argument: H4H14470P (antibody, human IgG4, V domains shown, human IgG4 (H4H)) VH: QVQLVESGGGVVQPGRSLRLSCAASGFTVRNYGMHWVRQAPGKGLEWVAVIWYDGSNKYYADSVKGRFTISRDNSKNTLFLQMNSLRAEDTAVYYCARGGELVRGDYYYGMDVWGQGTTVTVSS VL: DIQMTQSPSSLSASVGDRVTITCRASQGIRNDLGWYQQKPGKAPKRLIYGASSLQSGVPSRFSGSGSGTEFTLTISSLQPEDFATYYCLQHNSYPYTFGQGTKLEIK
A: 1.7
